- assay target: rNav1.2 sodium channels (Rattus norvegicus, UniProt P04775)
- Construct: host or cells: HEK-293
- Sequence (P04775 whole entry): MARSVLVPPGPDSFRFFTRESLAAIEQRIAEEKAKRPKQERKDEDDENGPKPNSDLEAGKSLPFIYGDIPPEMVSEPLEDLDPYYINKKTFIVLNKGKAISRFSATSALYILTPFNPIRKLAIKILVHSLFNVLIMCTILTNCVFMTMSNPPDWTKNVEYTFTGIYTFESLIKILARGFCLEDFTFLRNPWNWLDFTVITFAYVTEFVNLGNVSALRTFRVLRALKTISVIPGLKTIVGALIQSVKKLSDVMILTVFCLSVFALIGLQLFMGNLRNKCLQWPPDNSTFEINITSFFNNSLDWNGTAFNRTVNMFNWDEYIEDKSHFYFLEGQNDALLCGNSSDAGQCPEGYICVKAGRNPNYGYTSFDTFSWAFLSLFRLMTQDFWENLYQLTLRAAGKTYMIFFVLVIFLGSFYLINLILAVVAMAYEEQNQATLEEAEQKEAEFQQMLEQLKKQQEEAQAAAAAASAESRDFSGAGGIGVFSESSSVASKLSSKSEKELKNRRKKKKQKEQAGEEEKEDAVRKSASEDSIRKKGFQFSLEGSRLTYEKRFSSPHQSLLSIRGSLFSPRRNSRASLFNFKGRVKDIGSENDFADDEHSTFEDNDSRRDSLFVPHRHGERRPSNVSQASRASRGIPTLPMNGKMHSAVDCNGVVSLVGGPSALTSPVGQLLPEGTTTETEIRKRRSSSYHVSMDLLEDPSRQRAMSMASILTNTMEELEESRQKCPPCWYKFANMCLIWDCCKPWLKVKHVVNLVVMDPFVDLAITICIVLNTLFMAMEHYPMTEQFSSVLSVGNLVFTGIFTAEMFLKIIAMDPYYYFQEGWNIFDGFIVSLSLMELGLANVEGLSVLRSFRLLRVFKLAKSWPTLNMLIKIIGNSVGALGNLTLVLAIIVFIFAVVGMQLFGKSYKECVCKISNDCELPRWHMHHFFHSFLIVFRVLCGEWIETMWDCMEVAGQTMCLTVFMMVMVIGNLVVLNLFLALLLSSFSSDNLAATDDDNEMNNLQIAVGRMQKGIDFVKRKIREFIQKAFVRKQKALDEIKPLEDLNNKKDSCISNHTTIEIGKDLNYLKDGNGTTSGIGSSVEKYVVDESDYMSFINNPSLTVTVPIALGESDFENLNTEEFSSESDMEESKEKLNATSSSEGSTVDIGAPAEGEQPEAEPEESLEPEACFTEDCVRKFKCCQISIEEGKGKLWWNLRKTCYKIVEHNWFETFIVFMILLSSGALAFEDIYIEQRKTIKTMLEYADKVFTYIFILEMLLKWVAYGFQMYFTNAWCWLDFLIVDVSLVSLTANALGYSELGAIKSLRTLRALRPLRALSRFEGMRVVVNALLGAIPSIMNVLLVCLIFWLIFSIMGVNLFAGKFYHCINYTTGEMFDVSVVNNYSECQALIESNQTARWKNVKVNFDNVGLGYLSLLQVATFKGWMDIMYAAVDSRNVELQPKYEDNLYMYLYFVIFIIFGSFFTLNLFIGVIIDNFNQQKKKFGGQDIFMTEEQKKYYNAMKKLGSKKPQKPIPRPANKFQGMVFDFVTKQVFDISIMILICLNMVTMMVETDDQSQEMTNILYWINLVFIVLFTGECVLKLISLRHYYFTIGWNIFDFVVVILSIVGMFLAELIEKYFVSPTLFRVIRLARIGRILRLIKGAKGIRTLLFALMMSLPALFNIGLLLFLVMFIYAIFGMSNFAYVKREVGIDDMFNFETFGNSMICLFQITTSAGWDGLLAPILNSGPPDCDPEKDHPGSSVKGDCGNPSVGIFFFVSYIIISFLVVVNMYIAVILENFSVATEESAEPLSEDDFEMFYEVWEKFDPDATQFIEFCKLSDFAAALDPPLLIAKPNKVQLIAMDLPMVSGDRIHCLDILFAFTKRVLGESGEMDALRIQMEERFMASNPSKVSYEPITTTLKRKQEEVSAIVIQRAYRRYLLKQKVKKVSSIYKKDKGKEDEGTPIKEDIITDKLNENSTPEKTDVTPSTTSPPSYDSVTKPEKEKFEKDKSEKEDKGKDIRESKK
- procedure summary: QPatch automated patch clamp, inhibition of sodium currents evoked by 5 Hz trains at three extracellular pH values
- Assay type: cell-based
- applied conditions: pH 7.3/8.6; cc 100 mM
readout type: Ratio Tau Offset

Below: 5 compounds and their reported Ratio Tau Offset.
compound | assay target | readout type | experimental value
COc1ccc(C(CN(C)C)C2(O)CCCCC2)cc1 (stereo not drawn) | rNav1.2 sodium channels (Rattus norvegicus, UniProt P04775) | Ratio Tau Offset | 0.920
Nc1c(Br)cc(Br)cc1CN[C@H]1CC[C@H](O)CC1 | rNav1.2 sodium channels (Rattus norvegicus, UniProt P04775) | Ratio Tau Offset | 0.933
CCCCN1CCCCC1C(=O)Nc1c(C)cccc1C (stereo not drawn) | rNav1.2 sodium channels (Rattus norvegicus, UniProt P04775) | Ratio Tau Offset | 1.677
CN1CCN2c3ncccc3Cc3ccccc3C2C1 (stereo not drawn) | rNav1.2 sodium channels (Rattus norvegicus, UniProt P04775) | Ratio Tau Offset | 0.867
C[Si](C)(Cc1ccc(F)cc1)CN1CCCCC1 | rNav1.2 sodium channels (Rattus norvegicus, UniProt P04775) | Ratio Tau Offset | 0.721

Could you now look at the following compound, please?
// map CC12CC3CC(C)(C1)CC(N)(C3)C2 [memantine] to recorded Ratio Tau Offset (system: rNav1.2 sodium channels (Rattus norvegicus, UniProt P04775)) 0.838

Reference for the values: paper PMC4585259
